study.system: UniProt:P00533
readout.kind: IC50 (µM)

* Cc1oncc1C(=O)Nc1ccc(C(F)(F)F)cc1 | 30
* O=C(O)c1cc(N(Cc2ccccc2O)Cc2cc(O)ccc2O)ccc1O | 0.01

----------
study.system: MAPK14 (human)
assay.protocol: p38-mediated TNF-Inhibition (LPS-Stimulated PBMCs)
conditions: pbmc
readout.kind: IC50

- O=C1NCN2N=C(Sc3ccccc3Br)C=CC2=C1c1c(Cl)cccc1Cl: 160 nM

----------
study.system: EGFR (human)
conditions: pc-9
readout.kind: IC50 (nM)

• Cc1c(NC(=O)OC[C@@H]2COCCN2)cn2ncnc(Nc3ccc4c(cnn4Cc4cccc(F)c4)c3)c12 = 340

The reported measurements were obtained from the Kinase Knowledgebase extract (Sharma et al. 2016).
